system-under-test: MCH1R (UniProt Q99705)
Here the recorded IC50 is given for each entry.
measured-metric: IC50 (nM)

* CN(C)Cc1ccc2c(CNC(=O)c3ccc(-c4ccc(F)cc4)cc3)cccc2c1 | 12
* CCN(CC)Cc1ccc2c(CN(C)C(=O)c3ccc(-c4ccc(C(F)(F)F)cc4)cc3)cccc2c1 | 70

Origin of values: patent US7368462B1
